test system: SF-295 CNS; test: NCI tumour cell line growth inhibition, 48 h
endpoint: TGI

Prompt line: # get_value(readout='TGI', item= `FC(F)(F)c1nc(N2CCCC2)ncc1-c1nnnn1-c1ccc(Cl)cc1` )
Response line: > 100 µM

Prompt line: Note, next up: `COc1ccccc1/C=C(\C#N)c1ccccc1`
Response line: > 100 µM

Prompt line: Note, next up: OCC1OC(n2nc(-c3ccccc3)nc2-c2cnccn2)C(O)C(O)C1O (stereo not given)
Response line: > 100 µM

Prompt line: Note, next up: COc1cc(C2SCC(=O)N2c2cc(Cl)c(Cl)cc2Cl)cc(OC)c1OC (stereo not given)
Response line: > 100 µM

Prompt line: Note, next up: `CC(=O)ON(C(C)=O)c1ccc(-c2nc3ccccc3s2)cc1`
Response line: > 76.4 µM

Prompt line: Note, next up: `O=C(O)C/C(=C\c1ccco1)C(=O)O`
Response line: > 100 µM

Prompt line: Note, next up: O=C(Nc1ccc(Cl)cc1Cl)C1C(=O)N(c2ccc(Cl)cc2Cl)C(=O)/C1=N\Nc1ccc([N+](=O)[O-])cc1[N+](=O)[O-] (stereo not given)
Response line: > 100 µM

Prompt line: Note, next up: `Cc1cc(N(CCC#N)CCC#N)ccc1/C(N=Nc1ccc(Cl)cc1)=N\NC(=O)c1cc(Cl)ccc1O`
Response line: 91.4 µM

Prompt line: Note, next up: `COc1c(C=O)c2c(c(OC)c1OC)-c1ccc(OC)c(=O)cc1[C@@H](NC(C)=O)CC2`
Response line: 0.449 µM

Prompt line: Note, next up: C/C=C/[C@H]1O[C@@](O)([C@@H](C)[C@H](O)[C@H](C)[C@H]2OC(=O)/C(OC)=C/C(C)=C/[C@@H](C)[C@@H](O)[C@@H](CC)[C@@H](O)[C@H](C)C/C(C)=C/C=C/[C@@H]2OC)C[C@H](OC2CC(O)C(O)C(C)O2)[C@@H]1C (stereo not given in full)
Response line: 10.4 µM

Prompt line: Note, next up: `O=c1cc(NCCCCCO)[nH]c(=O)[nH]1`
Response line: > 100 µM

Prompt line: Note, next up: `NC(=O)NNCc1ccccc1`
Response line: > 100 µM

Prompt line: Note, next up: `Cc1ccc(C2=Nc3cc(C)c(Cl)cc3S(=O)(=O)NN2)cc1`
Response line: > 100 µM

Prompt line: Note, next up: `O=C1OC[C@@H]2[C@@H](O)CCCCCN12`
Response line: > 100 µM

Prompt line: Note, next up: `ClCCCN(CCCCl)c1ccc(C=Nc2cccc(Cl)c2)cc1`
Response line: > 82.4 µM

Prompt line: Note, next up: NC(Cc1ccc(S(=O)(=O)O)cc1)C(=O)NC(CCCCNC(=O)NCCCCC(NC(=O)C(N)Cc1ccc(S(=O)(=O)O)cc1)C(=O)NC(Cc1ccc(S(=O)(=O)O)cc1)C(=O)O)C(=O)NC(Cc1ccc(S(=O)(=O)O)cc1)C(=O)O (stereo not given)
Response line: > 100 µM

Prompt line: Note, next up: `Nc1c(C(=O)c2cccc(CCCN3CCOCC3)c2)cnn1-c1ccc(F)cc1`
Response line: > 25 µM

Prompt line: Note, next up: CN1C(=O)CC(c2cccc(C3CC(=O)N(C)C3=O)n2)C1=O (stereo not given)
Response line: > 100 µM

Prompt line: Note, next up: `CCCCCCCCCCCCNC(C)=O`
Response line: 34.4 µM

Prompt line: Note, next up: `CC(=O)Nc1ccc(Nc2cc(=O)[nH]c(=O)[nH]2)cc1`
Response line: > 100 µM

Ref: PubChem BioAssay (NCI)
